- testProtocol: in vivo
- cond: rat, po
observedProperty: LD50 (mg/kg)
Numeric answer only, unit mg/kg assumed.

Q: Given the entry CCCCCOc1cccc(NC(=O)O[C@@H]2CCCC[C@H]2N2CCCC2)c1 (relative stereo) , report its measured LD50.
A: 1110

###

- testProtocol: in vivo
- cond: guinea pig, sc
observedProperty: LD50 (mg/kg)
Numeric answer only, unit mg/kg assumed.

Q: Given the entry CCCCCOc1cccc(NC(=O)O[C@@H]2CCCC[C@H]2N2CCCC2)c1 (relative stereo) , report its measured LD50.
A: 73.2

Every entry's value here was drawn from patent US4975450A.
